The measured values listed here are drawn from patent US20210087281A1.

# testSystem: native mouse MET on living cells (mouse, UniProt P16056 25-1379)
# experimentalProtocol: cell-based or functional assay

{"columns": ["binder", "scatter score 0-4, MLP29, 0.012 nM, score"],
 "data": [
  ["76G7 chimeric llama-human IgG1 mAb (antibody, V domains shown, llama VH on human IgG1 CH1-CH2-CH3, llama VL on human lambda CL) VH: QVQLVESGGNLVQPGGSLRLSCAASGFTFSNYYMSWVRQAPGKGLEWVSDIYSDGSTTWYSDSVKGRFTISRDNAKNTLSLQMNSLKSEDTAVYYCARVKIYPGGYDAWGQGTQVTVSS VL: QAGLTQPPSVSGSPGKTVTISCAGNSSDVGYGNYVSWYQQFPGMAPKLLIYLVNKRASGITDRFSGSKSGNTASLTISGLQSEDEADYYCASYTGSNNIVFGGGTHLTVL", 0]
]}
